Reference for the values: patent US9302999B2

We begin with a simple list: items and their reported Plant response rating, Rice.
Tested on: rice (Oryza sativa)
Assay: Test C flooded paddy test: rice
Type: in vivo
Conditions: Flood, 62 g ai/ha; scale 0 to 100 (0 no effect, 100 complete control)

[
  {
    "molecule": "Cc1nn(-c2cccc(I)c2)nc1C(=O)c1cccc(C(F)(F)F)c1 [Compound 90]",
    "assay target": "rice (Oryza sativa)",
    "result": 0
  },
  {
    "molecule": "CSc1ccc(-n2nc(C)c(C(=O)c3cccc(C(F)(F)F)c3)n2)cc1 [Compound 93]",
    "assay target": "rice (Oryza sativa)",
    "result": 0
  },
  {
    "molecule": "Cc1nn(-c2ccc(Br)cc2)nc1C(=O)c1cccc(C(F)(F)F)c1 [Compound 92]",
    "assay target": "rice (Oryza sativa)",
    "result": 0
  }
]

Query Plant response rating, Rice for CCc1nn(-c2ccc(C(F)(F)F)cn2)nc1Cc1cccc(C(F)(F)F)c1 [Compound 108] 0

###

We begin with a simple list: items and their reported Crabgrass, Large plant response rating.
Test system: crabgrass, large (large crabgrass, Digitaria sanguinalis)
Test: Test A pre-/postemergence: crabgrass, large
Assay type: in vivo
Details: Postemergence, 500 g ai/ha; visual rating on 0 to 100 scale (0 no effect, 100 complete control), approximately ten days

Illustrative cases are given below, each with its answer.
[
  {
    "molecule": "Cc1nn(-c2ccc(C(F)(F)F)cc2)nc1Cc1cnn(CC(F)(F)F)c1 [Compound 51]",
    "Crabgrass, Large plant response rating": 10
  },
  {
    "molecule": "Cc1nn(-c2ccccc2I)nc1C(=O)c1cccc(C(F)(F)F)c1 [Compound 91]",
    "Crabgrass, Large plant response rating": 10
  },
  {
    "molecule": "Cc1nn(-c2ccc(Br)cc2)nc1C(=O)c1cccc(C(F)(F)F)c1 [Compound 92]",
    "Crabgrass, Large plant response rating": 30
  }
]

Specify Crabgrass, Large plant response rating for Cc1nn(-c2ccc(F)cc2)nc1Cn1cnc(C(F)(F)F)c1 [Compound 112] , system crabgrass, large (large crabgrass, Digitaria sanguinalis). 90

Specify Crabgrass, Large plant response rating for CSc1ccccc1-n1nc(C)c(C(=O)c2cccc(C(F)(F)F)c2)n1 [Compound 6] , system crabgrass, large (large crabgrass, Digitaria sanguinalis). 20

Specify Crabgrass, Large plant response rating for Cc1nn(-c2ccc(C(F)(F)F)cc2)nc1Oc1ccc(Cl)c(C(F)(F)F)c1 [Compound 103] , system crabgrass, large (large crabgrass, Digitaria sanguinalis). 30

Specify Crabgrass, Large plant response rating for Cc1nn(-c2cccc(Cl)c2)nc1C(=O)c1cccc(C(F)(F)F)c1 [Compound 76] , system crabgrass, large (large crabgrass, Digitaria sanguinalis). 30

Specify Crabgrass, Large plant response rating for Cc1nn(-c2ccnc(Cl)c2)nc1C(=O)c1cccc(C(F)(F)F)c1 [Compound 4] , system crabgrass, large (large crabgrass, Digitaria sanguinalis). 70

Specify Crabgrass, Large plant response rating for Cc1nn(-c2ccccc2Cl)nc1C(=O)c1cccc(C(F)(F)F)c1 [Compound 5] , system crabgrass, large (large crabgrass, Digitaria sanguinalis). 0

Specify Crabgrass, Large plant response rating for CCc1nn(-c2ccc(C(F)(F)F)cn2)nc1Cc1cccc(C(F)(F)F)c1 [Compound 108] , system crabgrass, large (large crabgrass, Digitaria sanguinalis). 90

###

Test system: kochia (Kochia scoparia)
Assay: Test D pre-/postemergence: kochia
Assay type: in vivo
Conditions: Postemergence, 31 g ai/ha; scale 0 to 100 (0 no effect, 100 complete control)
We begin with a simple list: items and their reported Plant response rating: Kochia.
Answer with the value's number alone.

[
  {
    "structure": "Cc1nn(-c2ccc(F)cc2)nc1Cc1ccnc(C(F)(F)F)c1",
    "result": 90
  }
]

Query Plant response rating: Kochia for `Cc1nn(-c2ccnc(C(F)(F)F)c2)nc1Cc1ccnc(C(F)(F)F)c1` 85

Query Plant response rating: Kochia for `Cc1nn(-c2ccc(F)c(F)c2)nc1Oc1ccnc(C(F)(F)F)c1` 98

Query Plant response rating: Kochia for `Cc1nn(-c2ccc(F)c(C(F)(F)F)c2)nc1Oc1ccnc(C(F)(F)F)c1` 85

###

System: foxtail, giant (giant foxtail, Setaria faberii)
Assay: Test A pre-/postemergence: foxtail, giant
Assay type: in vivo
Details: Preemergence, 125 g ai/ha; 0 to 100 scale where 0 is no effect and 100 is complete control
readout name: Plant response rating, Foxtail, Giant

[
  {
    "compound": "CCc1nn(-c2ccc(F)cc2)nc1Oc1ccnc(C(F)(F)F)c1 [Compound 166]",
    "result": 100
  },
  {
    "compound": "CC(C)c1nn(-c2ccc(F)cc2)nc1Cc1ccnc(C(F)(F)F)c1 [Compound 151]",
    "result": 0
  },
  {
    "compound": "Fc1ccc(-n2nc(F)c(Cc3ccnc(C(F)(F)F)c3)n2)cc1 [Compound 159]",
    "result": 40
  }
]

Specify Plant response rating, Foxtail, Giant for Cc1nn(-c2ccc(C(F)(F)F)cc2)nc1Oc1ccc(Cl)c(C(F)(F)F)c1 [Compound 103] , system foxtail, giant (giant foxtail, Setaria faberii). 0

Specify Plant response rating, Foxtail, Giant for O=C(c1ccnc(C(F)(F)F)c1)c1nn(-c2ccc(F)cc2)nc1F [Compound 158] , system foxtail, giant (giant foxtail, Setaria faberii). 0

Specify Plant response rating, Foxtail, Giant for Cc1nn(-c2ccc(F)c(F)c2)nc1Oc1ccnc(C(F)(F)F)c1 [Compound 145] , system foxtail, giant (giant foxtail, Setaria faberii). 100

###

Test system: barnyardgrass (Echinochloa crus-galli)
Assay: Test A pre-/postemergence: barnyardgrass
Assay type: in vivo
Details: Postemergence, 125 g ai/ha; 0 to 100 scale, 0 is no effect, 100 is complete control
readout name: Barnyardgrass plant response rating
Answer with the value's number alone.

[
  {
    "structure": "Cc1nn(-c2ccc([N+](=O)[O-])cc2)nc1C(=O)c1cccc(C(F)(F)F)c1",
    "result": 10
  },
  {
    "structure": "Cc1nn(-c2ccccc2I)nc1C(=O)c1cccc(C(F)(F)F)c1",
    "result": 0
  },
  {
    "structure": "Cc1nn(-c2cccc([N+](=O)[O-])c2)nc1C(=O)c1cccc(C(F)(F)F)c1",
    "result": 0
  }
]

Specify Barnyardgrass plant response rating for `Cc1nn(-c2cccc(Cl)c2)nc1C(=O)c1cccc(C(F)(F)F)c1` , system barnyardgrass (Echinochloa crus-galli). 0

###

We begin with a simple list: items and their reported Plant response rating, Wheat.
System: wheat (Triticum aestivum)
Experiment: Test A pre-/postemergence: wheat
Type: in vivo
Details: Preemergence, 500 g ai/ha; 0 to 100 scale, 0 is no effect, 100 is complete control
Answer with the value's number alone.

Illustrative cases are given below, each with its answer.
[
  {
    "compound": "Cc1nn(-c2cccc(C(F)(F)F)c2)nc1Oc1cc(C(F)(F)F)ncn1 [Compound 38]",
    "readout name": "Plant response rating, Wheat",
    "result": 0
  },
  {
    "compound": "Cc1nn(-c2ccc(C(F)(F)F)cn2)nc1Cn1nc(C(F)(F)F)cc1C [Compound 21]",
    "readout name": "Plant response rating, Wheat",
    "result": 0
  },
  {
    "compound": "Cc1nn(-c2cccc(Cl)c2)nc1C(=O)c1cccc(C(F)(F)F)c1 [Compound 76]",
    "readout name": "Plant response rating, Wheat",
    "result": 0
  },
  {
    "compound": "Cc1nn(-c2cccc(C(F)(F)F)c2)nc1Oc1ccnc(C(F)(F)F)c1 [Compound 40]",
    "readout name": "Plant response rating, Wheat",
    "result": 20
  },
  {
    "compound": "Cc1nn(-c2ccnc(Cl)c2)nc1C(=O)c1cccc(C(F)(F)F)c1 [Compound 4]",
    "readout name": "Plant response rating, Wheat",
    "result": 30
  }
]

Query Plant response rating, Wheat for Cc1nn(-c2cccc([N+](=O)[O-])c2)nc1C(=O)c1cccc(C(F)(F)F)c1 [Compound 62] 0

Query Plant response rating, Wheat for Cc1nn(-c2cccc(C(F)(F)F)c2)nc1Oc1cccc(C(F)(F)F)c1 [Compound 70] 0

###

Test system: wheat (Triticum aestivum)
Test: Test A pre-/postemergence: wheat
Type: in vivo
Details: Postemergence, 125 g ai/ha; 0 to 100 scale, 0 is no effect, 100 is complete control
readout name: Wheat plant response rating
Answer with the value's number alone.

Illustrative cases are given below, each with its answer.
[
  {
    "structure": "Cc1nn(-c2ccccc2Cl)nc1C(=O)c1cccc(C(F)(F)F)c1",
    "result": 0
  },
  {
    "structure": "Cc1nn(-c2ccc(F)cc2)nc1Oc1ccc(Cl)c(C(F)(F)F)c1",
    "result": 0
  }
]

// next entry
Query Wheat plant response rating for `Cc1nn(-c2ccnc(F)c2)nc1C(=O)c1cccc(C(F)(F)F)c1` 30
